target: human ether-à-go-go-related gene (hERG) potassium channel (human); test: primary screen, population patch clamp on CHO cells stably expressing hERG; higher = less effect of the substance
Sequence (Q12809 whole entry, looked up): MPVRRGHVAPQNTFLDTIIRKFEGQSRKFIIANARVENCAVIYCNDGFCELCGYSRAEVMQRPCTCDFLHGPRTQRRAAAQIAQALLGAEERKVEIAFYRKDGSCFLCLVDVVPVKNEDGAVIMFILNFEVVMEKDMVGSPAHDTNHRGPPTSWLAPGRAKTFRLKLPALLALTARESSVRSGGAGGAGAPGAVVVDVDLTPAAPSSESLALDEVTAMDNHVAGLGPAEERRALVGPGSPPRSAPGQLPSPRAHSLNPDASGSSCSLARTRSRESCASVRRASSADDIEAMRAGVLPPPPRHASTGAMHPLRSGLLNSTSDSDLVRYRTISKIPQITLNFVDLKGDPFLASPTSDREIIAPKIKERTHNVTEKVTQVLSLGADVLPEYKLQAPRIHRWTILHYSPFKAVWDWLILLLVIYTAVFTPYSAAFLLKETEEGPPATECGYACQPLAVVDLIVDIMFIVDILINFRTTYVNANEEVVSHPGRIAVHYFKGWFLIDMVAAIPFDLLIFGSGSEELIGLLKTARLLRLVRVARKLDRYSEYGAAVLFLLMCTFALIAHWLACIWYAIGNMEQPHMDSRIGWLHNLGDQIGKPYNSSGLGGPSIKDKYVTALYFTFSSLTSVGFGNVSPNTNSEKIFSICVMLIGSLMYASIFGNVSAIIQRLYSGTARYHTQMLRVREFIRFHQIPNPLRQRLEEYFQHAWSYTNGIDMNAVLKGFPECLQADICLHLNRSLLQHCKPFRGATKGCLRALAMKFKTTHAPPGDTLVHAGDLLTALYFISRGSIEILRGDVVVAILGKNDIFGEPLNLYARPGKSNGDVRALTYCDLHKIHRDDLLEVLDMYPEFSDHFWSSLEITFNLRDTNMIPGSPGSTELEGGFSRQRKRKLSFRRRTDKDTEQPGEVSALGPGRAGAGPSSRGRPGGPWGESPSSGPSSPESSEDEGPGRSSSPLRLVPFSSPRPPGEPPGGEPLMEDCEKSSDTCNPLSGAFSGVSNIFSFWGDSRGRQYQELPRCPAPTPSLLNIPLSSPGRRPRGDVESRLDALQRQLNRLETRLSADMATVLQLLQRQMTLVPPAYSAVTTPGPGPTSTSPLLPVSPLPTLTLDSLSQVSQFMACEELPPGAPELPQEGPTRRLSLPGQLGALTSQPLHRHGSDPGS
Screen size: about 310,000 compounds; about 14,000 (4.5%) showed an effect of 50% or more. Effects have a minus sign here. Only a selection was taken, and strong results are over-represented in it overall.
Parameter: hERG current change (%, negative = inhibition) at 10uM

q: Return reported hERG current change (%, negative = inhibition) at 10uM for target or system human ether-à-go-go-related gene (hERG) potassium channel (human), item Cc1ccc(C(=O)C[n+]2cc(-c3ccc(C)cc3)n3c2CCCCC3)cc1.[Br-] .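 Also: peak tail current of the secondary pulse compared with the same well before compound.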
a: -53.1%

q: Quote hERG current change (%, negative = inhibition) at 10uM with test system human ether-à-go-go-related gene (hERG) potassium channel (human) for O=C(C[n+]1cc(-c2ccccc2)n2c1CCCCC2)c1ccc(Br)cc1.[Br-];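 also: peak tail current of the secondary pulse compared with the same well before compound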
a: -52.7%

q: Fill in hERG current change (%, negative = inhibition) at 10uM for O=C(C[n+]1cc(-c2ccc(F)cc2)n2c1CCC2)OCc1ccccc1.[Br-] tested with human ether-à-go-go-related gene (hERG) potassium channel (human).
a: -11.9%

q: State, for human ether-à-go-go-related gene (hERG) potassium channel (human), measured hERG current change (%, negative = inhibition) at 10uM of the compound listed here: CCN1CCc2nc(NC(=O)c3cc(F)c(F)cc3Cl)sc2C1
a: -34.2%

q: GET hERG current change (%, negative = inhibition) at 10uM | system: human ether-à-go-go-related gene (hERG) potassium channel (human) | item: O=C(CCN1C(=O)C2C3C=CC(C3)C2C1=O)Nc1ccccc1 (stereo not shown);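 also: peak tail current of the secondary pulse compared with the same well before compound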
a: 21.1%

q: For human ether-à-go-go-related gene (hERG) potassium channel (human), give the measured hERG current change (%, negative = inhibition) at 10uM of the entry O=C(C[n+]1cc(-c2ccccc2)n2c1CCC2)c1cccs1.[Br-]
a: -3.31%

q: Look up human ether-à-go-go-related gene (hERG) potassium channel (human) data: hERG current change (%, negative = inhibition) at 10uM of Cc1ccc(C(=O)C[n+]2cc(-c3ccccc3)n3c2CCCCC3)cc1.[Br-] , then report it.
a: -11.3%

q: Report hERG current change (%, negative = inhibition) at 10uM under test system human ether-à-go-go-related gene (hERG) potassium channel (human) for N#C/C(=C/c1ccccc1[N+](=O)[O-])c1nc(C2CC2)cs1 .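 Also: peak tail current of the secondary pulse compared with the same well before compound.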
a: -12.3%

q: State recorded hERG current change (%, negative = inhibition) at 10uM with human ether-à-go-go-related gene (hERG) potassium channel (human), entry Cc1ccc(-c2c[n+](CC(=O)OCc3ccccc3)c3n2CCC3)cc1.[Br-] , no comment.
a: -56.3%

q: With human ether-à-go-go-related gene (hERG) potassium channel (human) as the test system, provide measured hERG current change (%, negative = inhibition) at 10uM for this compound: O=c1cc[nH]c2c(C(F)(F)F)cccc12
a: -0.945%
